# credit: patent US12441803B2

# reported Kd; entries follow
Target: T1, CD25 (Homo sapiens, UniProt P01589)
T1 sequence (P01589 22-272): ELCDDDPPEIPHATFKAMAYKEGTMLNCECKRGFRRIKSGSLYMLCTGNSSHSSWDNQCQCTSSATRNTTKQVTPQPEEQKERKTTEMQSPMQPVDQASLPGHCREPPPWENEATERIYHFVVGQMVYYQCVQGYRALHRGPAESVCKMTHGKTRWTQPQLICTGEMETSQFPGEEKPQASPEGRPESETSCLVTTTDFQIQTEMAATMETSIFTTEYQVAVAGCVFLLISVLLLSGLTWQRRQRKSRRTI
Assay: Binding of human IgG1 format antibodies to CD25 by Octet
Details: read-out: Biosensor Measured CD25 Affinity
Excerpt: Thirty antibodies were selected for additional testing as full-length immunoglobulins. The heavy and light chain sequences were cloned into human immunoglobulin G (IgG1) format and expressed and purified.
Quick reminder: number only, in nM, skip the unit.

>  <Molecule>
YU390-B12: anti-CD25 scFv clone, SEQ ID NO: 738 (protein, listed as Mus musculus) scFv: PGRSLRLSCAASGFTFSSYGMHWVRQAPGKGLEWVAVISYDGSNKYYADSVKGRFTISRDNSKNTLYLQMNSLRAEDTAVYYCAKELLEGAFDIWGQGTMVTVSSCAKELLEGAFDIWSYVLTQPPSLSVAPGQTARITCGGDNIETKSVHWYQQRPGQAPVLVVYDDDDRPSGIPERFSGSNSGNTATLTISRVEAGDEADYYCQVWDSSSGHREVFGGGTKLTVLCQVWDSSSGHREVF

>  <Kd / nM>
13.7

$$$$
>  <Molecule>
YU403-G05: anti-CD25 scFv clone, SEQ ID NO: 835 (protein, listed as Mus musculus) scFv: PSGDLSLTCDVSGGSISRSNWWIWVRQPPGKGLEWIGEIYHTGSTNYNPSLKRRVTISVDKSKNQFSLNLSSVTAADTAVYYCARGKGSYAFDIWGLGTMVTVSSCARGKGSYAFDIWVLTQPHSVSESPGKTVTISCTGSGGNIARNYVQWYQHRPGRAPSTVIYEDDRRPSGVPDRFSGSTDISSNSASLTISGLKTEDEADYYCQSYDGNNHMVFGGGTRVTVLCQSYDGNNHMVF

>  <Kd / nM>
31.9

$$$$
>  <Molecule>
YU401-B01: anti-CD25 scFv clone, SEQ ID NO: 827 (protein, listed as Mus musculus) scFv: PGSSVKVSCKASGGTFSSYAISWVRQAPGQGLEWMGGIIPIFGTANYAQKFQGRVTITADESTSTAYMELSSLRSEDTAVYYCAREMYYYYGMDVWGQGTTVTVSSCAREMYYYYGMDVWDIVMTQSPSSLSASVGDRVTITCRASQSIITYLNWYQQKPGKVPKLLIYAASSLQSGVPSRFSGSGSGTDFTLTISSLQPEDFATYYCQQSYSTPPTFGQGTKLEIKCQQSYSTPPTF

>  <Kd / nM>
70.4

$$$$

For the molecule YU390-A11: anti-CD25 scFv clone, SEQ ID NO: 736 (protein, listed as Mus musculus) scFv: PGRSLRLSCAASGFTFSSYGMHWVRQAPGKGLEWVAVISYDGSNKYYADSVKGRFTISRDNSKNTLYLQMNSLRAEDTAVYYCAKELLEGAFDIWGQGTMVTVSSCAKELLEGAFDIWSYVLTQPPSLSVAPGQTARITCGGDNIETKSVHWYQQRPGQAPVLVVYDDDDRPSGIPERFSGSNSGNTATLTISRVEAGDEADYYCQVWDSSSGHREVFGGRTKPALLCQVWDSSSGHREVF , report Kd.
13.3
